- TEST_SYSTEM: MERTK (UniProt Q12866)
- Sequence (Q12866 whole entry, looked up): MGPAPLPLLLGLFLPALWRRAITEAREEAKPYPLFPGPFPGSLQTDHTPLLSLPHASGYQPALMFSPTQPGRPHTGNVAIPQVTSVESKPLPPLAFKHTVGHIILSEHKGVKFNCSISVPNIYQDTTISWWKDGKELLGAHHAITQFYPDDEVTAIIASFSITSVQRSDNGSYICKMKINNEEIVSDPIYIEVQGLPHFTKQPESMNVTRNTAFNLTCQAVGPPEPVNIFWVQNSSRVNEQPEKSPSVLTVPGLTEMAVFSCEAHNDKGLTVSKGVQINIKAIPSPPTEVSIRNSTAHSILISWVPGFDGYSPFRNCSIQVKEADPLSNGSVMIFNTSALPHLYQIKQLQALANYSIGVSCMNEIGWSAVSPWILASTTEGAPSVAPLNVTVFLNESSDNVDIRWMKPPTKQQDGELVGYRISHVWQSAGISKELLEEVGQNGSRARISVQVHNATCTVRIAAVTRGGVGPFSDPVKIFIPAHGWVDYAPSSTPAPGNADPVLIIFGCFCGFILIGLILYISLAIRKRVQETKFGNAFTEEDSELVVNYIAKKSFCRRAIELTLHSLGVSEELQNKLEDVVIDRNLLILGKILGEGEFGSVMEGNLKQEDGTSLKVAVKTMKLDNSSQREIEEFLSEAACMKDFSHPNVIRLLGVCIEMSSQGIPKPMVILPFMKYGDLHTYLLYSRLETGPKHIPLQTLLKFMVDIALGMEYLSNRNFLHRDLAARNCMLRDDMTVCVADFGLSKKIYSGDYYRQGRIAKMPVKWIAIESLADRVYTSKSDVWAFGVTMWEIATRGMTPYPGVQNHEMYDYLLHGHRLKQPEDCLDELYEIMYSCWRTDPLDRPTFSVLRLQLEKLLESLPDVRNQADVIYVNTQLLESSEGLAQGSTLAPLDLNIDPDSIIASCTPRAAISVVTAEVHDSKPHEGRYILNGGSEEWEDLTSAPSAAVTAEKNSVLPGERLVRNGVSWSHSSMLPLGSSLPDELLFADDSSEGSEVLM
- PROTOCOL_DESCRIPTION: phosphorylation enrichment, bacterial display (enrichment ratio); higher = better substrate or ligand; peptides without Tyr show the background;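 further: 11-residue human phosphosite peptides and single-mutation variants displayed on the E. coli surface, counted by deep sequencing, each peptide's frequency after selection divided by its frequency in the unselected input library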;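 further: frequency after pTyr selection over input frequency; kinase dosed for 20-30% of maximal phosphorylation in three min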
Given measured phosphorylation enrichment, output met if it is greater than or equal to 0.6 and not met if not.

Answer whether phosphorylation enrichment of SMVVPYEPPEV [TP53_Y220_V216M] is greater than or equal to 0.6.
not met

Could you verify whether the entry GFRPVYSEDEQ [CHST6_Y362_YF] shows phosphorylation enrichment of no less than 0.6?
not met

// inclusive: phosphorylation enrichment at least 0.6? input: LPPREYVVVPS [CAPN1_Y494_G492R]
met

Please indicate if the recorded phosphorylation enrichment for PLQKTYNHNVL [SLC4A1_Y553_Y555H] meets or exceeds 0.6.
met

State whether the measured phosphorylation enrichment reaches 0.6, counting equality as reaching it, for RSFLSYFTSHV [NEFL_Y442_P440L_YF]
met

I'd appreciate it if you could say whether SDVNKYSTAFG [GJB3_Y16_G12D] has phosphorylation enrichment at least equal to 0.6.
not met

Does LDFNEYVRDLN [HPRT1_Y198_F199V_YF] have a reported phosphorylation enrichment of at least 0.6?
not met

* * *

So I've got a bunch of sequences here, and I need their phosphorylation enrichment values.
- TEST_SYSTEM: EPHB2 (UniProt P29323)
- Sequence (P29323 whole entry, looked up): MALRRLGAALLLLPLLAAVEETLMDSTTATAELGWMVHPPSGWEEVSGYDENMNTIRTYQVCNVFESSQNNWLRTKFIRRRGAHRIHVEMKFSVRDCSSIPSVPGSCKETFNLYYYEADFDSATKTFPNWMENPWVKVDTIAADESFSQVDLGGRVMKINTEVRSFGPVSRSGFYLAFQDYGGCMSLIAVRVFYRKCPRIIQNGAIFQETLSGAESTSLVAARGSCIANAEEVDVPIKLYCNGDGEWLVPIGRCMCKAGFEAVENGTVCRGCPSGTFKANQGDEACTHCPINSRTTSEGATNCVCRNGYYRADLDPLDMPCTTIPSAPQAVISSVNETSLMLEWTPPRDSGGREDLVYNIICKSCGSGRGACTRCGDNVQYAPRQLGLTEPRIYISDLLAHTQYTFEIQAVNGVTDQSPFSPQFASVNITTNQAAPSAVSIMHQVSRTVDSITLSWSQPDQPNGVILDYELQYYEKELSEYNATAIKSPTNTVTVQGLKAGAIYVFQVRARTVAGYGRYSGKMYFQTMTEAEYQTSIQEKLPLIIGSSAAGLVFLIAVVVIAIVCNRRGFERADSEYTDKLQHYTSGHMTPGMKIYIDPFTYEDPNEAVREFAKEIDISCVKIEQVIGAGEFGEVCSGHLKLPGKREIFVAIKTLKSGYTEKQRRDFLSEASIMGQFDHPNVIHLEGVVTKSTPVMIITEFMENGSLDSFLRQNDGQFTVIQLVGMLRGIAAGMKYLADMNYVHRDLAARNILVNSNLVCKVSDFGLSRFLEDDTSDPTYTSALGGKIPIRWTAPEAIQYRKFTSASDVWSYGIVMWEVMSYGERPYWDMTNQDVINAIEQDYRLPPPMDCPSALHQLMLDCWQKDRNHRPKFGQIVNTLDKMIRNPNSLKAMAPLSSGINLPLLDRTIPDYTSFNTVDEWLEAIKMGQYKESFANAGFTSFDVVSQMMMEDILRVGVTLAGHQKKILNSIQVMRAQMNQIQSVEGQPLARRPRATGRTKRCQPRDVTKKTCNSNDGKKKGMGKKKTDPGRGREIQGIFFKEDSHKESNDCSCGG
- PROTOCOL_DESCRIPTION: phosphorylation enrichment, bacterial display (enrichment ratio); higher = better substrate or ligand; peptides without Tyr show the background
Give the value as a plain number.

Look up and report measured phosphorylation enrichment for this entry: DNKALYDICFR [TUBB3_Y208_E205K]
2.23

Quickly give me recorded phosphorylation enrichment for CGTPDYIAPEI [PRKCG_Y521]
0.755

Return the recorded phosphorylation enrichment value; entry: EEQKKYFNAVK [SCN5A_Y1494_M1498V_YF]
0.566

Note down phosphorylation enrichment recorded for RNFVHYVQGLK [VWF_Y1400_R1399H]
0.515

Return reported phosphorylation enrichment. Input sequence: EAEPYYRSLRD [NPHS1_Y1139]
0.594

Note phosphorylation enrichment for the sequence shown: APNEFYDGDHD [HDAC3_Y414]
0.605

Quote phosphorylation enrichment reported for CQAHGYSCQLI [STK11_Y156_F157S] please.
0.508

Please report the measured phosphorylation enrichment for RHLQEYQDLLN [GFAP_Y349]
0.45

In one line, give reported phosphorylation enrichment of the entry ALAHKYPGGGG [HBB_Y146_H147P] .
0.84

Provide one value: measured phosphorylation enrichment of PKSLFYLLLKL [TRPC6_Y775]
1.89

Give a short answer stating reported phosphorylation enrichment for TFYQMYDKGLV [IARS2_Y231] .
3.66

Look up and state reported phosphorylation enrichment for ECKLRYSRKEG [PTPN11_Y263_L262R]
0.533

Given the sequence SGSFRYGSSFE [SELE_Y390_C394F] , write its reported phosphorylation enrichment.
0.438

Report measured phosphorylation enrichment; entry is LTNDRYVATLT [IL6ST_Y396_L397V]
0.72

Please look at this sequence and report its phosphorylation enrichment: QMVGMYASFYM [AVPR2_Y124_S127F]
1.92

Tell me measured phosphorylation enrichment for DQLVKHGVNPG [TMPO_Y127_Y127H] please.
0.304

Fill in phosphorylation enrichment for record SDYSRYARTSI [TERT_Y949_S948R]
0.495

Item QGCSIYKDYYR [PLA2G2D_Y82] : provide phosphorylation enrichment
0.734

Provide phosphorylation enrichment value for the following sequence: SDPIIYTLENV [ADGRE1_Y534_I539V]
0.576

Return phosphorylation enrichment for the following sequence: EFENSCIFDIN [GAB1_Y83_Y83C]
0.431

Answer with the recorded phosphorylation enrichment for the sequence listed here: AEVIWYKGDEV
0.572

Give the reported value of phosphorylation enrichment for this record: GCCSWYRGWAP [TIMP3_Y195_Y191C]
0.565

// fetch phosphorylation enrichment given entry RLLRGYNQSAF [HLA-C_Y137_D138N_YF]
0.417

Please give the documented phosphorylation enrichment of SGPRRYTMAAL [TTR_Y125_I127M]
0.466

For PVQAAYKKVVA [HBB_Y131_Q132K] , write its phosphorylation enrichment.
0.278

Indicate its recorded phosphorylation enrichment; the sequence in question is NFADPYRQLPF [CTNND2_Y503_Q507P_YF]
0.58

Annotate the sequence LTYHMYADPNI [SOS1_Y618_F623I] with its measured phosphorylation enrichment.
6.28

Output measured phosphorylation enrichment for this item: LVPAWYIGFLC [KCNQ2_Y237_T234P]
0.625

Please give the documented phosphorylation enrichment of VFLGAYDCFLP [SLC22A5_Y486_R488C_YF]
4.47

Specify phosphorylation enrichment for AKKVFYVNETR [SHH_Y253_I255N] and stop.
0.448

Look up and report measured phosphorylation enrichment for this entry: EFDRLYEEFTR [PIK3R1_Y467_YF]
2.77

Output phosphorylation enrichment of NSNSDYVDVLP [SH2D1B_Y127]
2.82

Recall and state the measured phosphorylation enrichment for VVLGSYDRLRV [IFT172_Y260] .
0.451

Specify phosphorylation enrichment for EFISEHCGEII [EZH2_Y641_Y641H] and stop.
0.644

Check the records and state phosphorylation enrichment for SVVVPYERPEV [TP53_Y220_P222R]
0.513

Note down phosphorylation enrichment recorded for EVLKNYSQQKD [GOLGA4_Y1551_N1552S]
0.456

Respond only with phosphorylation enrichment recorded for SNPAYYVLEGV [INPPL1_Y987_N982S]
0.609
